Biological target: 5-lipoxygenase (Mus musculus, UniProt P48999)
Construct: The supernatant is used as a 5-lipogenase enzyme solution; endogenous in cells
Sequence (P48999 1-674): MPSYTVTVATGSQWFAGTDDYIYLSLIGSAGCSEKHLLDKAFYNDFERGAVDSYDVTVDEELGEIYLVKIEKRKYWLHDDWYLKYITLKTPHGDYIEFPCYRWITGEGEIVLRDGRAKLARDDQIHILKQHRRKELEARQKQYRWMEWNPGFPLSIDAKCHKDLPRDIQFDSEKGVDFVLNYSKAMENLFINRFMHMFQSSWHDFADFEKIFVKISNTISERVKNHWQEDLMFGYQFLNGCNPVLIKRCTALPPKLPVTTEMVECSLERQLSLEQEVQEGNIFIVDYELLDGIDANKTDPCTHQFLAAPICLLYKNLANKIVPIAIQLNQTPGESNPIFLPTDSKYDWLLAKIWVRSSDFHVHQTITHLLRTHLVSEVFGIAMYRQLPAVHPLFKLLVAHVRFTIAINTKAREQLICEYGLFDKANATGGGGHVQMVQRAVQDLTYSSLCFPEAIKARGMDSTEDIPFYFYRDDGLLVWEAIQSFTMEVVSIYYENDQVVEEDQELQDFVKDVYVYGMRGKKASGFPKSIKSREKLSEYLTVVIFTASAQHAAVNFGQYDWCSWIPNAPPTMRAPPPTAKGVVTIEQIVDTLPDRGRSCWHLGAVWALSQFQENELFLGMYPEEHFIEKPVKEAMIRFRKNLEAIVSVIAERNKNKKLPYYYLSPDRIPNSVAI
Assay: 5-Lipoxygenase-inhibiting Activity (decrease in 5-HETE and LTB4 formed from radiolabelled arachidonic acid, enzyme solution from mouse mastcytoma cells P-815)
Type: biochemical
Conditions: 5-HETE and LTB4 formation; mouse mastcytoma P-815 enzyme solution; 37° C., 5 min; pH 7.4; with indomethacin; read-out: 50% Inhibitory concentration IC50
ENDPOINT: IC50 (nM)

COMPOUND	IC50 / nM
O=C(/C=C/C=C/c1ccc(O)c(O)c1)N1CCN(C(c2ccccc2)c2ccccc2)CC1	40
COc1ccc(/C=C/C=C/C(=O)N2CCN(CCCOC(c3ccccc3)c3ccccc3)CC2)cc1OC	4000
COc1cc(/C=C/C=C/C(=O)NCCN2CCN(C(c3ccccc3)c3ccc(Cl)cc3)CC2)cc(OC)c1O (centres unmarked)	20
COc1cc(/C=C/C(=O)NCCCN2CCN(C(c3ccccc3)c3ccccc3)CC2)ccc1O	300
COc1cc(/C=C/C(=O)NCCCCN2CCN(C(c3ccccc3)c3ccccc3)CC2)cc(OC)c1O	30

P: COc1cc(/C=C/C=C/C(=O)NCCCCN2CCC(OC(c3ccccc3)c3ccccc3)CC2)cc(OC)c1O
Q: COc1cc(/C=C/C(=O)NCCCCN2CCN(C(c3ccccc3)c3ccccc3)CC2)ccc1O
Input: Lower IC50: P or Q ? Record your answer as the label of the chosen record.
Output: P

a: O=C(/C=C/C=C/c1ccc(O)c(O)c1)NCCCCN1CCC(OC(c2ccccc2)c2ccccc2)CC1
b: O=C(/C=C/C=C/c1ccc(O)c(O)c1)NCCCN1CCN(C(c2ccccc2)c2ccc(Cl)cc2)CC1 (centres unmarked)
c: Cn1c(=O)c2c(ncn2CCCN2CCN(C(=O)/C=C/C=C/c3ccc(O)c(O)c3)CC2)n(C)c1=O
Input: In this exercise, place the 3 compounds in ascending sequence of their recorded IC50. Answer format: the labels, in the requested order.
Output: a, b, c

1: COc1cc(/C=C/C(=O)NCCOC(c2ccccc2)c2ccccc2)ccc1O
2: COc1cc(/C=C/C=C/C(=O)NCCN2CCN(C)CC2)ccc1O
Input: In the pair 1 and 2 , the larger recorded IC50 belongs to which? Reply briefly: the label of your chosen item.
Output: 2

Where do these numbers come from? They come from patent US4673684A.
